tested on: 616215-338-R-J1-PDC complex spheroid growth, % test/control; experiment: Anticancer human tumor 616215-338-R-J1-PDC patient-derived colon adenocarcinoma cell line growth inhibition [Asc]; conditions: second compound 1 µM; first compound 0.0316 µM; stronger effect = lower value
Provide the recorded viability, T/C for the entries that follow.

I would be grateful if you could share the reported viability, T/C for CNC(C)C(=O)NC1CN(S(=O)(=O)c2cccc(S(=O)(=O)N3CCC4CCC(C(=O)NC(c5ccccc5)c5ccccc5)N4C(=O)C(NC(=O)C(C)NC)C3)c2)CCC2CCC(C(=O)NC(c3ccccc3)c3ccccc3)N2C1=O (centres undefined) + Cc1c(S(C)(=O)=O)c(-c2cc(F)cc(N3CCN(c4ccc(NS(=O)(=O)c5ccc(NC(CCN6CCC(C(=O)OCCCP(=O)(O)O)CC6)CSc6ccccc6)c(S(=O)(=O)C(F)(F)F)c5)cc4)CC3)c2)c(-c2ccc(Cl)cc2)n1C(C)C .
73.2%

Name the recorded viability, T/C for CCN1CCN(Cc2ccc(Nc3ncc(F)c(-c4cc(F)c5nc(C)n(C(C)C)c5c4)n3)nc2)CC1 + Cc1c(S(C)(=O)=O)c(-c2cc(F)cc(N3CCN(c4ccc(NS(=O)(=O)c5ccc(NC(CCN6CCC(C(=O)OCCCP(=O)(O)O)CC6)CSc6ccccc6)c(S(=O)(=O)C(F)(F)F)c5)cc4)CC3)c2)c(-c2ccc(Cl)cc2)n1C(C)C .
77.9%

// query viability, T/C value for entry Cn1ncnc1[C@H]1c2n[nH]c(=O)c3cc(F)cc(c23)N[C@@H]1c1ccc(F)cc1 + CNC(C)C(=O)NC1CN(S(=O)(=O)c2cccc(S(=O)(=O)N3CCC4CCC(C(=O)NC(c5ccccc5)c5ccccc5)N4C(=O)C(NC(=O)C(C)NC)C3)c2)CCC2CCC(C(=O)NC(c3ccccc3)c3ccccc3)N2C1=O
96%

Which viability, T/C value is on record for C=CC(=O)N1CCN(c2nc(=O)n(-c3c(C)ccnc3C(C)C)c3nc(-c4c(O)cccc4F)c(F)cc23)C(C)C1 (centres undefined) + CNC(C)C(=O)NC1CN(S(=O)(=O)c2cccc(S(=O)(=O)N3CCC4CCC(C(=O)NC(c5ccccc5)c5ccccc5)N4C(=O)C(NC(=O)C(C)NC)C3)c2)CCC2CCC(C(=O)NC(c3ccccc3)c3ccccc3)N2C1=O ?
104%

* * *

tested on: 616215-338-R-J1-PDC complex spheroid growth, % test/control; test: Anticancer human tumor 616215-338-R-J1-PDC cell line growth inhibition [Asc]; conditions: curve of first compound; second compound 0.01 µM;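 further: spheroids exposed to agents for seven days before readout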
property: IC50

Name the reported IC50 value associated with the compound NC(=O)C(=Cn1cnc(-c2cc(C(F)(F)F)cc(C(F)(F)F)c2)n1)c1cncnc1 + CNC(C)C(=O)NC1CN(S(=O)(=O)c2cccc(S(=O)(=O)N3CCC4CCC(C(=O)NC(c5ccccc5)c5ccccc5)N4C(=O)C(NC(=O)C(C)NC)C3)c2)CCC2CCC(C(=O)NC(c3ccccc3)c3ccccc3)N2C1=O
> 300 nM

Which IC50 is reported for this compound? O=C(c1cc(Cc2n[nH]c(=O)c3ccccc23)ccc1F)N1CCN(C(=O)C2CC2)CC1 + CNC(C)C(=O)NC1CN(S(=O)(=O)c2cccc(S(=O)(=O)N3CCC4CCC(C(=O)NC(c5ccccc5)c5ccccc5)N4C(=O)C(NC(=O)C(C)NC)C3)c2)CCC2CCC(C(=O)NC(c3ccccc3)c3ccccc3)N2C1=O
> 10000 nM

Tell me the measured IC50 of NC1CCC(NC2CC2c2ccccc2)CC1 (centres undefined) + CNC(C)C(=O)NC1CN(S(=O)(=O)c2cccc(S(=O)(=O)N3CCC4CCC(C(=O)NC(c5ccccc5)c5ccccc5)N4C(=O)C(NC(=O)C(C)NC)C3)c2)CCC2CCC(C(=O)NC(c3ccccc3)c3ccccc3)N2C1=O , please.
> 100 nM

Sample Cn1ncnc1[C@H]1c2n[nH]c(=O)c3cc(F)cc(c23)N[C@@H]1c1ccc(F)cc1 + CNC(C)C(=O)NC1CN(S(=O)(=O)c2cccc(S(=O)(=O)N3CCC4CCC(C(=O)NC(c5ccccc5)c5ccccc5)N4C(=O)C(NC(=O)C(C)NC)C3)c2)CCC2CCC(C(=O)NC(c3ccccc3)c3ccccc3)N2C1=O — what was its IC50?
> 100 nM
